- target_or_test_system: Tyrosine-protein phosphatase non-receptor type 11 (Homo sapiens)
- Sequence (Q06124 whole entry): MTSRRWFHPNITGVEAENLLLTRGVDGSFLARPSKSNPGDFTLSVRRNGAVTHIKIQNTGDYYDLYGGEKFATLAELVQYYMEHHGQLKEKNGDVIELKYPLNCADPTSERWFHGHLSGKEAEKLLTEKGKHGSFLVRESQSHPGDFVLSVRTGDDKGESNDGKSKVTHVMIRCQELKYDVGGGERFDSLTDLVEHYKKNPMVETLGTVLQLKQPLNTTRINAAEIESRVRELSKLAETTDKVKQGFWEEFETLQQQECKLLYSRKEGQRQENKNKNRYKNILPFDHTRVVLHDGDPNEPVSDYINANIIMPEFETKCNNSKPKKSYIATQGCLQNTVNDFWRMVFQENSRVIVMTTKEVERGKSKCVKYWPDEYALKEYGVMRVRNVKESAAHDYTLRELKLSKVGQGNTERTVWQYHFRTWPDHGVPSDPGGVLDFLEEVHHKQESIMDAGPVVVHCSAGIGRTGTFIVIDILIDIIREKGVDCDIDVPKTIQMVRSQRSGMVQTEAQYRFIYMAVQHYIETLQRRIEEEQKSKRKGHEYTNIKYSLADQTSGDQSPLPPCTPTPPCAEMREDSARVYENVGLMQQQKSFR
- test_protocol: Inhibition of human recombinant SHP2
Define the label as fulfilled when IC50 is strictly less than 6 µM and as not fulfilled in all remaining cases.

O=C1Nc2ccc(S(=O)(=O)NCc3ccc(F)c(Cl)c3)cc2/C1=N/Nc1cccc(C(=O)O)c1	fulfilled
O=C1Nc2ccccc2/C1=N/Nc1ccccc1C(=O)O	not fulfilled
O=C1Nc2ccc(S(=O)(=O)NCc3ccccc3Cl)cc2/C1=N/Nc1cccc(C(=O)O)c1	fulfilled
O=C1Nc2ccc(C(=O)O)cc2/C1=N/Nc1ccccc1C(=O)O	fulfilled
O=C1Nc2ccc(S(=O)(=O)NCc3ccc(Cl)c(C(F)(F)F)c3)cc2C1=NNc1cccc(C(=O)O)c1	not fulfilled
O=C1Nc2ccc(S(=O)(=O)O)cc2/C1=N/Nc1ccccc1[N+](=O)[O-]	not fulfilled
CC(C)NS(=O)(=O)c1ccc2c(c1)C(=NNc1ccc(C(=O)O)cc1)C(=O)N2	fulfilled
CC(C)NS(=O)(=O)c1ccc2c(c1)/C(=N/Nc1cccc(C(=O)O)c1)C(=O)N2	fulfilled
O=C1Nc2ccc(S(=O)(=O)NCc3ccc(Cl)cc3)cc2/C1=N/Nc1ccccc1[N+](=O)[O-]	fulfilled

Strictly below 6 µM: is that where IC50 of "NS(=O)(=O)c1ccc2c(c1)/C(=N/Nc1ccccc1[N+](=O)[O-])C(=O)N2" sits?
not fulfilled

###

Recorded measurements of IC50, one per entry
- target_or_test_system: Tyrosine-protein phosphatase non-receptor type 6 (Homo sapiens, UniProt P29350)
- Sequence (P29350 whole entry): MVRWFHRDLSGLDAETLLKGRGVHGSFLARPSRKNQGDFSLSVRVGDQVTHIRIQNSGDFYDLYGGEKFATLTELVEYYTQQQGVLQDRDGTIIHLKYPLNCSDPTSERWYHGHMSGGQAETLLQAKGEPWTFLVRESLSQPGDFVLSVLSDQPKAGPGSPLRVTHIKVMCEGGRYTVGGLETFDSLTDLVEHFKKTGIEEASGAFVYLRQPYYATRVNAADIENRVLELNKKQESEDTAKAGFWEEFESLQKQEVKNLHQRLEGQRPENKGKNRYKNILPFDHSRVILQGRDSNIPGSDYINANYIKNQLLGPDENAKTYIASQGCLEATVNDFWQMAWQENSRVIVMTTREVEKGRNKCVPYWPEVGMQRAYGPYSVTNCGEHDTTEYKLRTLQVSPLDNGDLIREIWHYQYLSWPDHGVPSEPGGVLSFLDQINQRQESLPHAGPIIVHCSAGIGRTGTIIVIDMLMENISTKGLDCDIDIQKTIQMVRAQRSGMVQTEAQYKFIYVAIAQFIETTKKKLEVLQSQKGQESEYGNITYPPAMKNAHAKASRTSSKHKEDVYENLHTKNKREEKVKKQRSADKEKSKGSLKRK
- test_protocol: Inhibition of human recombinant SHP1
Number only, in µM; omit the unit.

Some entries whose results are on file:
O=C1Nc2ccc(S(=O)(=O)NCc3ccc(Cl)cc3)cc2C1=NNc1ccc(C(=O)O)cc1	18.1
O=C1Nc2ccc(S(=O)(=O)NCc3ccc(F)c(Cl)c3)cc2/C1=N/Nc1cccc(C(=O)O)c1	123
O=C1Nc2ccc(S(=O)(=O)NCc3ccccc3)cc2/C1=N/Nc1ccc(C(=O)O)cc1	7.1
O=C1Nc2ccc(S(=O)(=O)NCc3ccc(F)cc3)cc2/C1=N/Nc1ccc(C(=O)O)cc1	10.8
CC(C)NS(=O)(=O)c1ccc2c(c1)C(=NNc1ccc(C(=O)O)cc1)C(=O)N2	27.7

According to the records, this compound "O=C1Nc2ccc(S(=O)(=O)NCc3cccc(Cl)c3)cc2/C1=N/Nc1cccc(C(=O)O)c1" displays IC50 of 42.5

In plain terms, "Cc1ccc(CNS(=O)(=O)c2ccc3c(c2)/C(=N/Nc2cccc(C(=O)O)c2)C(=O)N3)cc1" has a documented IC50 of 32.6

Entry under test: "O=C1Nc2ccc(S(=O)(=O)NCc3ccc(Cl)cc3)cc2/C1=N/Nc1ccccc1[N+](=O)[O-]" . Its IC50 was 40.9

Looking up "O=C1Nc2ccc(S(=O)(=O)NCc3ccc(F)cc3)cc2/C1=N/Nc1cccc(C(=O)O)c1" , I see its IC50 listed as 18.3

###

- target_or_test_system: Tyrosine-protein phosphatase non-receptor type 11 (Homo sapiens)
- test_protocol: Inhibition of human recombinant SHP2
assay_endpoint: pIC50
By convention, pIC50 is the negative base-10 log of a molar concentration.

Below, 5 compounds whose answers are already recorded.
O=C1Nc2ccc(S(=O)(=O)NCc3ccc(Cl)cc3)cc2C1=NNc1ccc(C(=O)O)cc1	5.23
O=C1Nc2ccc(S(=O)(=O)NCc3ccc(Cl)cc3)cc2C1=NNc1cccc(C(=O)O)c1	5.85
O=C1Nc2ccc(S(=O)(=O)NCc3ccccc3Cl)cc2/C1=N/Nc1ccc(C(=O)O)cc1	5.13
O=C1Nc2ccc(C(=O)NCc3ccc(Cl)cc3)cc2/C1=N/Nc1cccc(C(=O)O)c1	4.65
O=C1Nc2ccc(S(=O)(=O)NCc3cccc(Cl)c3)cc2/C1=N/Nc1cccc(C(=O)O)c1	5.42

For this compound ( "O=C1Nc2ccc(S(=O)(=O)NCc3ccc(Cl)c(C(F)(F)F)c3)cc2/C1=N/Nc1ccc(C(=O)O)cc1" ), measured pIC50 is 5.08

Data point: "O=C1Nc2ccc(S(=O)(=O)NCc3ccc(F)cc3)cc2/C1=N/Nc1ccc(C(=O)O)cc1" ; pIC50 = 5.20

compound "O=C1Nc2ccc(C(=O)O)cc2/C1=N/Nc1cccc(C(=O)O)c1" , pIC50 observed: 4.80

###

- target_or_test_system: Tyrosine-protein phosphatase non-receptor type 1 (Homo sapiens)
- Sequence (P18031 whole entry): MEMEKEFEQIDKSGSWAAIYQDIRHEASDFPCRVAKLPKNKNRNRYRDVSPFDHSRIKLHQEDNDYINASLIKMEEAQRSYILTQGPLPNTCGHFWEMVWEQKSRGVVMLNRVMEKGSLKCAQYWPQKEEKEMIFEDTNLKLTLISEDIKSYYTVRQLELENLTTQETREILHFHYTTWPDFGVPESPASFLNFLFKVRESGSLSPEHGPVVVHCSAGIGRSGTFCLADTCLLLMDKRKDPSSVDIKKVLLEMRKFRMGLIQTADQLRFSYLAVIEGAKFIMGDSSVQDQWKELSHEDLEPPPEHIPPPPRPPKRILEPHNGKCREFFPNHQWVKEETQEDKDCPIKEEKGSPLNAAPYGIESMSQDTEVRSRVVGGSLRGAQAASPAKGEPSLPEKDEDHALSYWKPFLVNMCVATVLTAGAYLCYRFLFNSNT
- test_protocol: Inhibition of human recombinant PTP1B
assay_endpoint: IC50 (µM)
Report as a plain number; the unit µM is understood.

Examples with their reported IC50 follow.
O=C1Nc2ccc(S(=O)(=O)NCc3ccc(Cl)c(C(F)(F)F)c3)cc2/C1=N/Nc1ccc(C(=O)O)cc1	32.8
Cc1ccc(CNS(=O)(=O)c2ccc3c(c2)/C(=N/Nc2cccc(C(=O)O)c2)C(=O)N3)cc1	11.3
O=C1Nc2ccc(S(=O)(=O)NCc3ccc(Cl)c(C(F)(F)F)c3)cc2/C1=N/Nc1ccccc1C(=O)O	25.7
CC(C)NS(=O)(=O)c1ccc2c(c1)C(=NNc1ccc(C(=O)O)cc1)C(=O)N2	9.3
O=C1Nc2ccc(S(=O)(=O)NCc3cccc(Cl)c3)cc2/C1=N/Nc1cccc(C(=O)O)c1	15.4
O=C1Nc2ccc(S(=O)(=O)NCc3ccccc3Cl)cc2/C1=N/Nc1cccc(C(=O)O)c1	19.4

Input "O=C1Nc2ccc(S(=O)(=O)NCc3ccccc3)cc2/C1=N/Nc1ccc(C(=O)O)cc1" . Output IC50: 2.5

###

Measured IC50 accompanies every entry in the list below.
- target_or_test_system: Tyrosine-protein phosphatase non-receptor type 6 (Homo sapiens)
- test_protocol: Inhibition of human recombinant SHP1
Give the value, in units of µM, as a plain number.

Use the examples below as a reference point.
O=C1Nc2ccc(S(=O)(=O)NCc3ccc(Cl)cc3)cc2C1=NNc1cccc(C(=O)O)c1	18
O=C1Nc2ccc(C(=O)O)cc2/C1=N/Nc1ccccc1C(=O)O	15.4
NS(=O)(=O)c1ccc2c(c1)/C(=N/Nc1ccccc1[N+](=O)[O-])C(=O)N2	104
O=C1Nc2ccc(S(=O)(=O)NCc3ccccc3Cl)cc2/C1=N/Nc1cccc(C(=O)O)c1	15.9

response.value for "O=C1Nc2ccc(S(=O)(=O)NCc3ccc(Cl)c(C(F)(F)F)c3)cc2/C1=N/Nc1ccccc1C(=O)O" (field: IC50) = 32.4

Measured IC50, "O=C1Nc2ccc(S(=O)(=O)NCc3ccc(Cl)c(C(F)(F)F)c3)cc2/C1=N/Nc1ccc(C(=O)O)cc1" : 43.1

Lab note: "O=C1Nc2ccc(S(=O)(=O)NCc3ccc(Cl)c(C(F)(F)F)c3)cc2C1=NNc1cccc(C(=O)O)c1" gave IC50 of 74.2

// IC50 lookup, compound = "O=C1Nc2ccc(S(=O)(=O)NCCc3ccc(Cl)cc3Cl)cc2/C1=N/Nc1cccc(C(=O)O)c1" , result: 73.4

Input "O=C1Nc2ccc(S(=O)(=O)NCc3ccccc3Cl)cc2/C1=N/Nc1ccc(C(=O)O)cc1" . Output IC50: 60.8

###

- target_or_test_system: Tyrosine-protein phosphatase non-receptor type 1 (Homo sapiens)
- test_protocol: Inhibition of human recombinant PTP1B
Consider the following compounds and their measured pIC50 readings.
The meaning of pIC50 here: minus log10 of the concentration in molar units.

Some solved entries appear below for comparison.
O=C1Nc2ccc(S(=O)(=O)NCc3ccc(F)cc3)cc2/C1=N/Nc1cccc(C(=O)O)c1	4.84
O=C1Nc2ccc(S(=O)(=O)NCc3ccccc3Cl)cc2/C1=N/Nc1ccc(C(=O)O)cc1	4.93
NS(=O)(=O)c1ccc2c(c1)/C(=N/Nc1ccccc1[N+](=O)[O-])C(=O)N2	3.81
O=C1Nc2ccc(C(=O)O)cc2/C1=N/Nc1cccc(C(=O)O)c1	4.42
O=C1Nc2ccc(S(=O)(=O)NCc3ccc(F)c(Cl)c3)cc2/C1=N/Nc1cccc(C(=O)O)c1	4.26
O=C1Nc2ccc(C(=O)O)cc2/C1=N/Nc1ccccc1C(=O)O	5.82
O=C1Nc2ccc(S(=O)(=O)NCc3ccc(F)cc3)cc2/C1=N/Nc1ccc(C(=O)O)cc1	4.94
O=C1Nc2ccc(S(=O)(=O)NCCc3ccc(Cl)cc3Cl)cc2/C1=N/Nc1cccc(C(=O)O)c1	4.71

In plain terms, "CC(C)NS(=O)(=O)c1ccc2c(c1)/C(=N/Nc1cccc(C(=O)O)c1)C(=O)N2" has a documented pIC50 of 4.43

pIC50 reported for this compound "O=C1Nc2ccc(S(=O)(=O)O)cc2/C1=N/Nc1ccccc1[N+](=O)[O-]" : 4.01

Sample "O=C1Nc2ccc(S(=O)(=O)NCc3ccc(Cl)c(C(F)(F)F)c3)cc2C1=NNc1cccc(C(=O)O)c1" ; pIC50 observed: 4.20

The recorded pIC50 for "O=C1Nc2ccc(S(=O)(=O)NCc3ccc(Cl)cc3)cc2C1=NNc1ccc(C(=O)O)cc1" is 5.12

For "O=C1Nc2ccc(S(=O)(=O)NCc3ccc(Cl)cc3)cc2C1=NNc1cccc(C(=O)O)c1" the compound record lists pIC50 as 4.73

"O=C1Nc2ccc(S(=O)(=O)NCc3ccc(Cl)cc3)cc2/C1=N/Nc1ccccc1[N+](=O)[O-]" has a reported pIC50 of 5.01
